Target: T1, human neonatal Fc receptor (hFcRn) (human, UniProt P55899 24-290; P61769 21-119)
T1 construct: Biotinylated in the ELISA, Octet and yeast assays; also called human FcRn; huFcRn
T1 sequence (P55899 24-290 limits assumed, chain 1 of 2): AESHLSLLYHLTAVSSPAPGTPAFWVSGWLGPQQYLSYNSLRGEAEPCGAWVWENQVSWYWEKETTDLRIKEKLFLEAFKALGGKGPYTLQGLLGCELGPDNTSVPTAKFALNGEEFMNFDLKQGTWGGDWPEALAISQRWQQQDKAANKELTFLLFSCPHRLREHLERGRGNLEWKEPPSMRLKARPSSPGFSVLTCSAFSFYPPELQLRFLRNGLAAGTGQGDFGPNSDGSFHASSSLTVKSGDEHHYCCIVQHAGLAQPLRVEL
T1 sequence (P61769 21-119 limits assumed, chain 2 of 2): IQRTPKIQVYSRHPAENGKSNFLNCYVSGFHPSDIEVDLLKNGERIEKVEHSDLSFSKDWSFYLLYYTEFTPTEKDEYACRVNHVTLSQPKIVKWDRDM
Test: phage ELISA pH 7.4;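 note: higher score means stronger binding and above about 3 to 5 exceeds background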
# ELISA score per record follows

binder: L5 isolate with insertion SEQ ID NO: 412 (other) EPKSCDKTHTCPPCPAPELLGGPSVFLFPPKPKDTLMISRTPEVTCVVVDVSHEDPEVKFNWYVDGVEVHNAKTKPREEQYNSTYRVVSVLTVLHQDWLNGKEYKCKVSNKALPAPIEKTISKAKGQPREPQVYTLPPSRDELTKNQVSLTCLVKGFYPSDIAVEWESNGGCMQPWAFCGGGQPENNYKTTPPVLDSDGSFFLYSKLTVDKSRWQQGNVFSCSVMHEALHNHYTQKSLSLSPGK
measured property: ELISA score
experimental value: 0.4

Let us examine a further case.
So for L5 isolate with insertion SEQ ID NO: 432 (other) EPKSCDKTHTCPPCPAPELLGGPSVFLFPPKPKDTLMISRTPEVTCVVVDVSHEDPEVKFNWYVDGVEVHNAKTKPREEQYNSTYRVVSVLTVLHQDWLNGKEYKCKVSNKALPAPIEKTISKAKGQPREPQVYTLPPSRDELTKNQVSLTCLVKGFYPSDIAVEWESNGGCDRPVWFCGGGQPENNYKTTPPVLDSDGSFFLYSKLTVDKSRWQQGNVFSCSVMHEALHNHYTQKSLSLSPGK , the logged ELISA score turned out to be 0.5
